Target: VIM-2 (Pseudomonas aeruginosa, UniProt Q5U7L7)
Assay: biochemical
Settings: 50 μM compound, 5 nM MBL, 10 μM nitrocefin, 30 mins
Entries and their measured VIM-2 percentage inhibition follow.
Hi! Could you send only the number? It should be in %, unit omitted.

[[record]]
compound = "O=C(c1ccc(O)cc1)c1ccc(O)c(O)c1O [Compound 13]"
assayresult = 48

[[record]]
compound = "Oc1ccc2ccccc2n1 [Compound 32]"
assayresult = 9

[[record]]
compound = "Cc1ccc2cccc(O)c2n1 [Compound 40]"
assayresult = 77


In the following, a different compound is considered.
The measured VIM-2 percentage inhibition that Oc1c(Br)cc(Br)c2cccnc12 [Compound 49] showed for VIM-2 (Pseudomonas aeruginosa, UniProt Q5U7L7) is 92

----------
Target: VIM-2 (Pseudomonas aeruginosa, UniProt Q5U7L7)
Assay: biochemical
Conditions: 50 μM compound, 5 nM MBL, 10 μM nitrocefin, 30 mins; read-out: VIM-2 percentage inhibition
Listing of recorded inhibition at 50 µM by entry.
Include the unit after the number when you answer.

[[record]]
compound = "Sc1nccc(-c2ccccn2)n1"
tgt = "VIM-2 (Pseudomonas aeruginosa, UniProt Q5U7L7)"
observedproperty = "inhibition at 50 µM"
assayresult = "29%"

[[record]]
compound = "Cc1cc(C(=O)O)nc(O)n1"
tgt = "VIM-2 (Pseudomonas aeruginosa, UniProt Q5U7L7)"
observedproperty = "inhibition at 50 µM"
assayresult = "17%"

[[record]]
compound = "O=C(c1ccc(O)cc1)c1ccc(O)c(O)c1O"
tgt = "VIM-2 (Pseudomonas aeruginosa, UniProt Q5U7L7)"
observedproperty = "inhibition at 50 µM"
assayresult = "40%"


Record summary for Cc1cc(C(=O)O)nc2[nH][nH]c(=O)c12 : reported inhibition at 50 µM = 21%

Short answer for O=C(O)/C(S)=C\c1cccnc1 : inhibition at 50 µM was 40%

O=C(NO)c1n[nH]c(Cl)n1 yielded inhibition at 50 µM of 8%

Reported inhibition at 50 µM ( Cc1nc(S)nc(O)c1CC(=O)O ) = 18%

# inhibition at 50 µM of Cc1cc(C(=O)O)nc2[nH]c(=S)[nH]c(=O)c12 = 20%

The measured inhibition at 50 µM associated with Cc1ccc(O)c(CO)n1 reads 25%

For reference, reported inhibition at 50 µM for CCOC(=O)CS stands at 16%

For this compound ( Nc1nc(S)ncc1C(=O)O ), measured inhibition at 50 µM is 9%

inhibition at 50 µM in this record for O=c1c2ccccc2[nH]c(=S)n1O : 27%

// CC(C)c1cc(C(=O)O)nc2[nH][nH]c(=O)c12 : inhibition at 50 µM value = 18%

Per the records, this compound ( O=C1[C@@H](c2ccccc2)SCN1O ) has inhibition at 50 µM equal to 40%

inhibition at 50 µM reported for this compound Cc1nc2ccccc2c(=O)n1O : 22%

Record CC(C)Cc1cc(C(=O)O)nc(O)n1 , field inhibition at 50 µM: 5%

Memo: O=c1c(-c2ccco2)[n+]([O-])c2ccccc2n1O , reported inhibition at 50 µM: 9%

Kindly note the recorded inhibition at 50 µM for O=C(CCCCCCC(=O)Nc1ccccc1)NO [Compound 15, SAHA, reference compound] , which is 18%

O=c1c(-c2cccs2)[n+]([O-])c2ccccc2n1O has a reported inhibition at 50 µM of 25%
